- System: MDR1 (P-gp)
- Assay Name: Blood-brain-barrier (BBB) penetration potential via MDCK-MDR1 permeability assay
- Condition Description: dog, MDCK-MDR1, pH 7.4, MDCK-MDR1: Papp B-A, B-A direction
Each entry falls into one class according to its Papp B→A at 120 min, 5 μM; the ranges are one: < 30 ×10⁻⁶ cm/s; two: ≥ 30 ×10⁻⁶ cm/s and < 50 ×10⁻⁶ cm/s; three: ≥ 50 ×10⁻⁶ cm/s

Examples from the recorded data:
compound="CN(c1ccc(-c2cc3ncccc3cc2O)nn1)[C@H]1C[C@@H]2CC[C@@H](N2)[C@H]1F [Compound 73B]" category=three
compound="CN(c1ccc(-c2ccc(C3=CCCC3)cc2O)nn1)[C@H]1C[C@@H]2CC[C@@H](N2)[C@H]1F [Compound 34B]" category=one

Exercise: read the entry CN(c1ccc(-c2ccc(-c3ccn(C)n3)cc2O)nn1)[C@H]1C[C@@H]2CC[C@@H](N2)[C@H]1F (single isomer, unassigned) [Compound 36B] and state which class it falls under.
two

Field: class (Papp B→A at 120 min, 5 μM) — entry: CN(c1ccc(-c2cc3cccnc3cc2O)nn1)[C@H]1C[C@@H]2CC[C@@H](N2)[C@H]1F [Compound 74B]
three

====

For each record, write down the corresponding MDCK-MDR1: % Recov B-A.
- Test system: MDR1-MDCK cell monolayers
- Assay Name: Blood-brain-barrier (BBB) penetration potential via MDCK-MDR1 permeability assay
- Condition Description: B-A direction
Answers are plain numbers, in %.

Look over these answered cases.
molecule="CN(c1ccc(-c2cc(F)c(-c3ccoc(=O)c3)cc2O)nn1)[C@H]1C[C@@H]2CC[C@@H](N2)[C@H]1F [Compound 17B]" measured_target="MDR1-MDCK cell monolayers" property_label="MDCK-MDR1: % Recov B-A" observed=79
molecule="CN(c1ccc(-c2ccc(-n3ccnc3)cc2O)nn1)[C@@H]1C[C@H]2CCC[C@H](N2)[C@@H]1F [Compound 11A]" measured_target="MDR1-MDCK cell monolayers" property_label="MDCK-MDR1: % Recov B-A" observed=90
molecule="CN(c1ccc(-c2cc(F)c(-n3ccnn3)cc2O)nn1)[C@@H]1C[C@H]2CC[C@H](N2)[C@@H]1F [Compound 52A]" measured_target="MDR1-MDCK cell monolayers" property_label="MDCK-MDR1: % Recov B-A" observed=92
molecule="CN(c1ccc(-c2cc3nccnc3cc2O)nn1)[C@@H]1C[C@H]2CC[C@H](N2)[C@@H]1F [Compound 88A]" measured_target="MDR1-MDCK cell monolayers" property_label="MDCK-MDR1: % Recov B-A" observed=99
molecule="CN(c1ccc(-c2cc3cccnc3cc2O)nn1)[C@H]1C[C@@H]2CC[C@@H](N2)[C@H]1F [Compound 74B]" measured_target="MDR1-MDCK cell monolayers" property_label="MDCK-MDR1: % Recov B-A" observed=90
molecule="CN(c1ccc(-c2cc3cnn(C)c3cc2O)nn1)[C@@H]1C[C@H]2CC[C@H](N2)[C@@H]1F [Compound 76A]" measured_target="MDR1-MDCK cell monolayers" property_label="MDCK-MDR1: % Recov B-A" observed=88
molecule="CN(c1ccc(-c2cc3c(=O)n(C)ccc3cc2O)nn1)[C@@H]1C[C@H]2CC[C@H](N2)[C@@H]1F [Compound 83A]" measured_target="MDR1-MDCK cell monolayers" property_label="MDCK-MDR1: % Recov B-A" observed=83
molecule="Cc1cnc(-c2ccc(-c3ccc(N(C)[C@H]4C[C@@H]5CCC[C@@H](N5)[C@H]4F)nn3)c(O)c2)cn1 [Compound 26B]" measured_target="MDR1-MDCK cell monolayers" property_label="MDCK-MDR1: % Recov B-A" observed=81
molecule="CN(c1ccc(-c2ccc(-n3ccnn3)cc2O)nn1)[C@H]1C[C@@H]2CC[C@@H](N2)[C@H]1F [Compound 61B]" measured_target="MDR1-MDCK cell monolayers" property_label="MDCK-MDR1: % Recov B-A" observed=93
molecule="CN(c1ccc(-c2ccc(-c3cc[nH]n3)cc2O)nn1)[C@H]1C[C@@H]2CC[C@@H](N2)[C@H]1F (single isomer, unassigned) [Compound 33B]" measured_target="MDR1-MDCK cell monolayers" property_label="MDCK-MDR1: % Recov B-A" observed=82

Batch of 5 molecules: report MDCK-MDR1: % Recov B-A for each.
1. CN(c1ccc(-c2ccc(-n3ccnc3)cc2O)nn1)[C@H]1C[C@@H]2CCC[C@@H](N2)[C@H]1F [Compound 11B]
2. CN(c1ccc(-c2ccc(-c3cnc(C#N)cn3)cc2O)nn1)[C@@H]1C[C@H]2CCC[C@H](N2)[C@@H]1F [Compound 28A]
3. COc1cn(-c2ccc(-c3ccc(N(C)[C@@H]4C[C@H]5CC(F)(F)[C@@H](C4)N5)nn3)c(O)c2)cn1 [Compound 19A]
4. CN(c1ccc(-c2ccc(-n3ccnn3)cc2O)nn1)[C@@H]1C[C@H]2CC[C@H](N2)[C@@H]1F [Compound 61A]
5. CN(c1ccc(-c2cc3cnccc3cc2O)nn1)[C@@H]1C[C@H]2CC[C@H](N2)[C@@H]1F (single isomer, unassigned) [Compound 7A]

1: 89; 2: 61; 3: 94; 4: 88; 5: 75

State recorded MDCK-MDR1: % Recov B-A for all listed molecules.
1. CN(c1ccc(-c2cc(F)c(-c3ccn(C)c(=O)c3)cc2O)nn1)[C@H]1C[C@@H]2CC[C@@H](N2)[C@H]1F
2. CN(c1ccc(-c2cc(F)c(-n3ccnn3)cc2O)nn1)[C@H]1C[C@@H]2CC[C@@H](N2)[C@H]1F [Compound 52B]
3. CN(c1ccc(-c2ccc(-c3cnn(C)c3)cc2O)nn1)[C@@H]1C[C@H]2CC(F)(F)[C@@H](C1)N2
4. CN(c1ccc(-c2ccc(-c3cn[nH]c3)cc2O)nn1)C1CC2COCC(N2)C1F (stereo not drawn) [Compound 8B]
5. CN(c1ccc(-c2cc3oc(=O)n(C)c3cc2O)nn1)[C@@H]1C[C@H]2CC[C@H](N2)[C@@H]1F (single isomer, unassigned) [Compound 79A]

98
90
81
98
99

Please report MDCK-MDR1: % Recov B-A for every entry that follows.
1. CN(c1ccc(-c2cc3cccnc3cc2O)nn1)[C@H]1C[C@@H]2CCC[C@@H](N2)[C@H]1F [Compound 41B]
2. Cc1cc(=O)c2cc(O)c(-c3ccc(N(C)[C@@H]4C[C@H]5CC[C@H](N5)[C@@H]4F)nn3)cc2o1 [Compound 49A]
3. CC#Cc1ccc(-c2ccc(N(C)C3CC4CCC(N4)C3F)nn2)c(O)c1 (single isomer, unassigned) [Compound 30B]

[95, 78, 69]

====

- Test system: MDR1-MDCK cell monolayers
- Assay Name: Blood-brain-barrier (BBB) penetration potential via MDCK-MDR1 permeability assay
- Condition Description: A-B direction
Property Label: MDCK-MDR1: % Recov A-B

Give one value of MDCK-MDR1: % Recov A-B per listed compound.
1. CN(c1ccc(-c2cc3cnccc3cc2O)nn1)[C@@H]1C[C@H]2CC[C@H](N2)[C@@H]1F (single isomer, unassigned) [Compound 7B]
2. CN(c1ccc(-c2ccc(-n3cnc(C#N)c3)cc2O)nn1)[C@H]1C[C@@H]2CC[C@@H](N2)[C@H]1F [Compound 69B]
3. CN(c1ccc(-c2cc3ccncc3cc2O)nn1)[C@@H]1C[C@H]2CC[C@H](N2)[C@@H]1F (single isomer, unassigned) [Compound 87A]
4. CN(c1ccc(-c2cc(C#N)c(F)cc2O)nn1)[C@H]1C[C@@H]2CC[C@@H](N2)[C@H]1F [Compound 72B]
5. CNC(=O)c1ccc(-c2ccc(N(C)[C@H]3C[C@@H]4CC[C@@H](N4)[C@H]3F)nn2)c(O)c1 (single isomer, unassigned) [Compound 77B]
6. Cc1ccc(-c2ccc(-c3ccc(N(C)[C@@H]4C[C@H]5CCC[C@H](N5)[C@@H]4F)nn3)c(O)c2)nn1 [Compound 27A]

1: 69%; 2: 88%; 3: 59%; 4: 78%; 5: 102%; 6: 90%

====

- Test system: MDR1
- Assay Name: Blood-brain-barrier (BBB) penetration potential via MDCK-MDR1 permeability assay
- Condition Description: dog, MDCK-MDR1, pH 7.4, MDCK-MDR1: Efflux
Property Label: efflux ratio at 120 min, 5 μM
Give bare numbers.

compound="Cc1nc2cc(O)c(-c3ccc(N(C)[C@@H]4C[C@H]5CC[C@H](N5)[C@@H]4F)nn3)cc2s1 [Compound 116A]" observed=10
compound="Cc1nc2cc(-c3ccc(N(C)[C@H]4C[C@@H]5CC[C@@H](N5)[C@H]4F)nn3)c(O)cc2c(=O)n1CC(F)(F)F [Compound 113B]" observed=232
compound="Cc1nc2cc(-c3ccc(N(C)[C@H]4C[C@@H]5CC[C@@H](N5)[C@H]4F)nn3)c(O)cc2s1 [Compound 115B]" observed=7
compound="CN(c1ccc(-c2cc3oc(C(=O)N4CCC4)cc3cc2O)nn1)[C@H]1C[C@@H]2CC[C@@H](N2)[C@H]1F [Compound 112B]" observed=95
compound="Cc1nc2cc(O)c(-c3ccc(N(C)[C@H]4C[C@@H]5CC[C@@H](N5)[C@H]4F)nn3)cc2s1 [Compound 116B]" observed=7

Count: 8. Required value per item: efflux ratio at 120 min, 5 μM.
1. Cc1cc(=O)c2cc(O)c(-c3ccc(N(C)[C@H]4C[C@@H]5CC[C@H]([C@H]4F)N5C)nn3)cc2o1 [Compound 99B]
2. CN(c1ccc(-c2cc3oc(C(=O)N4CCC4)cc3cc2O)nn1)[C@H]1C[C@@H]2CC[C@H]([C@H]1F)N2C [Compound 107B]
3. Cc1nc2cc(-c3ccc(N(C)[C@H]4C[C@@H]5CC[C@@H](N5)[C@H]4F)nn3)c(O)cc2c(=O)n1C [Compound 114B]
4. Cc1nc2cc(O)c(-c3ccc(N(C)[C@H]4C[C@@H]5CC[C@@H](N5)[C@H]4F)nn3)cc2o1 [Compound 117B]
5. CN(c1ccc(-c2cc3cnccc3cc2O)nn1)[C@@H]1C[C@H]2CCC[C@H](N2)[C@@H]1F [Compound 121A]
6. Cc1nc2cc(-c3ccc(N(C)[C@@H]4C[C@H]5CC[C@H](N5)[C@@H]4F)nn3)c(O)cc2c(=O)n1C [Compound 114A]
7. Cc1cc(=O)c2cc(-c3ccc(N(C)[C@@H]4C[C@H]5CC[C@@H]([C@@H]4F)N5C)nn3)c(O)cc2o1 [Compound 100A]
8. CN(c1ccc(-c2cc3c(=O)n(C)ccc3cc2O)nn1)[C@H]1C[C@@H]2CC[C@H]([C@H]1F)N2C [Compound 98B]

1: 21; 2: 47; 3: 150; 4: 10; 5: 11; 6: 133; 7: 6; 8: 10

All values here come from patent US12509460B2.
